test system: E. coli BW25113 wild type growth inhibition, OD615; assay: growth inhibition of wild-type E. coli, dose response, BW25113 wild type, OD615 (AID 638)
For each of the compounds below, state its IC50.

# get_value(readout='IC50', item= O=C(Nc1cccc(Cl)c1)Nc1nccs1 )
96.1 µM

# get_value(readout='IC50', item= NC1C2CN(c3nc4c(cc3F)c(=O)c(C(=O)O)cn4-c3ccc(F)cc3F)CC12 (centres undefined) )
< 0.195 µM

# get_value(readout='IC50', item= CCn1cc(C(=O)O)c(=O)c2cc(F)c(N3CCN(C(=O)Nc4ccccc4)CC3)cc21 )
2.28 µM

# get_value(readout='IC50', item= CO[C@@]1(NC(=O)Cc2cccs2)C(=O)N2C(C(=O)O)=C(COC(N)=O)CS[C@@H]21 )
7.91 µM

# get_value(readout='IC50', item= CC(=O)OCC1=C(C(=O)O)N2C(=O)[C@@H](NC(=O)Cc3cccs3)[C@H]2SC1 )
10.6 µM

# get_value(readout='IC50', item= C=CCNc1ncnc2c1[nH]c1ccc(C)cc12 )
35.4 µM

# get_value(readout='IC50', item= COc1c(N2CCNC(C)C2)c(F)cc2c(=O)c(C(=O)O)cn(C3CC3)c12 (centres undefined) )
< 0.195 µM

# get_value(readout='IC50', item= O=C(Nc1nnc(-c2ccccc2)o1)c1ccc(Cl)cc1 )
102 µM

# get_value(readout='IC50', item= COc1cc(Cc2cnc(N)nc2N)cc(OC)c1OC )
0.688 µM

# get_value(readout='IC50', item= CCCCOc1ccc(NC2=NC3(CCCCC3)N=C(N)N2)cc1 )
89 µM

# get_value(readout='IC50', item= CC(=O)c1c(C)n([O-])c2ccccc2[n+]1=O )
19.5 µM

# get_value(readout='IC50', item= Cc1ccsc1C(=O)Nc1nnc(-c2ccco2)o1 )
60.3 µM

# get_value(readout='IC50', item= CN(C)[C@@H]1C(=O)C(C(N)=O)=C(O)[C@@]2(O)C(=O)C3=C(O)c4c(O)ccc(Cl)c4[C@@H](O)[C@H]3C[C@@H]12 )
0.609 µM

# get_value(readout='IC50', item= O=c1ccsn1Cc1ccccc1 )
23.6 µM

# get_value(readout='IC50', item= CCC(=O)N1CCN(c2cc3c(cc2F)c(=O)c(C(=O)O)cn3CC)CC1 )
3.16 µM

# get_value(readout='IC50', item= N#Cc1ccc(NC(=O)Nc2ccc(Cl)cc2)cc1 )
49.2 µM

# get_value(readout='IC50', item= Oc1c(CN2CCCCC2)cc(Br)c2cccnc12 )
61.3 µM

# get_value(readout='IC50', item= c1ccc(-c2cccc(-c3ccccn3)n2)nc1 )
66.8 µM

# get_value(readout='IC50', item= CCn1cc(C(=O)NCc2ccc3c(c2)OCO3)c(=O)c2cc(F)c(N3CCN(C)CC3)cc21 )
28.2 µM

# get_value(readout='IC50', item= CCSc1nnc(NC(=O)c2ccccn2)s1 )
92.8 µM

# get_value(readout='IC50', item= O=S1(=O)Nc2c(ccc3cccnc23)-c2ccccc21 )
26.8 µM

# get_value(readout='IC50', item= COc1cccc(C(=O)Nc2nnc(-c3cccs3)o2)c1 )
79.6 µM

# get_value(readout='IC50', item= CN1CCN(c2c(F)cc3c(=O)c(C(=O)O)cn4c3c2SCC4)CC1 )
1.1 µM

# get_value(readout='IC50', item= CCn1cc(C(=O)Nc2nncs2)c(=O)c2cc(F)c(N3CCN(C(=O)c4ccco4)CC3)cc21 )
75.6 µM
